meta.source: the supplement of paper PMC10567573

B1: OAS1 (parent)
chain: YIGTHEYPHFSHRPSTLQAASTPQ

# Variants of: B1
# Test Method Notes: protein stability index of a GFP-peptide fusion (GPS, HEK-293T) (PSI 1-6); higher = more stable;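 also: lentivirally expressed fusions sorted by FACS into six bins by GFP to DsRed ratio, PSI derived from sequencing read proportions per bin multiplied by bin number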
# Experimental Parameters: c terminus: a fixed tail appended
Measurement Type: protein stability index
Output: the number by itself.

Worked examples, 6 variants total:
| Sequence | protein stability index |
| --- | --- |
| YIGTHEYPHFSHRPSTLQAASTPV [Q24V] | 2.2 |
| YIGTHEYPHTSHRPSTLQAASTPQ [F10T] | 2.48 |
| YIGQHEYPHFSHRPSTLQAASTPQ [T4Q] | 1.89 |
| YIGAHEYPHFSHRPSTLQAASTPQ [T4A] | 1.86 |
| YIGTHEYPHFSHRPSTLQAALTPQ [S21L] | 1.53 |
| YIGTHEYPHDSHRPSTLQAASTPQ [F10D] | 3.14 |

## Input Please look up its protein stability index: YIGTHEYPHFSHRPSTLTAASTPQ [Q18T]
## Output 1.9

## Input Please look up its protein stability index: YIGTHKYPHFSHRPSTLQAASTPQ [E6K]
## Output 2.06

## Input Please look up its protein stability index: YIGTHEYLHFSHRPSTLQAASTPQ [P8L]
## Output 1.91

## Input Please look up its protein stability index: YIGTHEYPHFSHRPSTLQAWSTPQ [A20W]
## Output 2.43

## Input Please look up its protein stability index: YIGTHEYPHFSHRPNTLQAASTPQ [S15N]
## Output 2.24

## Input Please look up its protein stability index: YIGTHEYPHRSHRPSTLQAASTPQ [F10R]
## Output 2.19

## Input Please look up its protein stability index: YIGTHEYIHFSHRPSTLQAASTPQ [P8I]
## Output 2.02

## Input Please look up its protein stability index: YIGTHEYPHFSHRGSTLQAASTPQ [P14G]
## Output 2.21

## Input Please look up its protein stability index: YIGTYEYPHFSHRPSTLQAASTPQ [H5Y]
## Output 1.83

## Input Please look up its protein stability index: YIGTHEYPHFSHMPSTLQAASTPQ [R13M]
## Output 2.19

## Input Please look up its protein stability index: YIGTHEYPHFHHRPSTLQAASTPQ [S11H]
## Output 1.98

## Input Please look up its protein stability index: YIGTHEYPHFSHRPSTGQAASTPQ [L17G]
## Output 2.17
